tgt: 5-LO (Homo sapiens, UniProt P09917)
Construct: incubating a test compound with heparinised human blood, prior to challenge with the calcium ionophore A23187; endogenous in cells
Sequence (P09917 whole entry): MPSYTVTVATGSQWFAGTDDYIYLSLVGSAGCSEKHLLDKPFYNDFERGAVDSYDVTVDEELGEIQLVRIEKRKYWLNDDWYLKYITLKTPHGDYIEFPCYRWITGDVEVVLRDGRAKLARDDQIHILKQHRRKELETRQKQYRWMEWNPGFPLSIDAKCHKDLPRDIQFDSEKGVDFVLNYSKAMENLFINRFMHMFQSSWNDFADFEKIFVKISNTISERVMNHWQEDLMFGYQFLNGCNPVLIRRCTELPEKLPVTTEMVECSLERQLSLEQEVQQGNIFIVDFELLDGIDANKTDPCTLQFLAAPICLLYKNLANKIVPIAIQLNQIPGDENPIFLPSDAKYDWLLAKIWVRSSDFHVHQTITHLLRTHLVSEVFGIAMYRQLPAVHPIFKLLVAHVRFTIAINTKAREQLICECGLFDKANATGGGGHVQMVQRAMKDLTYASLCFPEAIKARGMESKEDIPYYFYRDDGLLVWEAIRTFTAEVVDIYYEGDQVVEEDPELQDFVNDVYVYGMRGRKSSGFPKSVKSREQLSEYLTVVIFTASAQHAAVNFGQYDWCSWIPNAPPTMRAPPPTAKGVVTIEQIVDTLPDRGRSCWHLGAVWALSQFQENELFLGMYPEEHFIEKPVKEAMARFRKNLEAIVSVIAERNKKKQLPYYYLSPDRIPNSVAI
test-name: Test a): in vitro heparinised human blood challenged with calcium ionophore A23187, radioimmunoassay of LTB4
experimental-conditions: A23187 challenge, read-out: IC50 against LTB4 in test (a)
Documented IC50 across a set of compounds
# output: bare number, implied unit µM

COC1(/C(N)=C/C(=O)OCc2ccc3ccccc3c2)CCOCC1 [Example 1]
0.07

// below: IC50 requested for another compound
input: Please look up its IC50: CO/N=C(\C)c1ccc(COC(=O)/C=C(\N)C2(OC)CCOCC2)cc1 [Example 2]
output: 9.36

meta.source: patent EP0581464A1
